- experiment: E. coli acrAB mutant growth effects, primary screen, E. coli filamentation inducers, strain DRC39, OD650, 48 h (AID 1179);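 also: screen aims at cell division blockers that make cells filament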
- experimental-setup: E. coli DRC39 delta-acrAB growth, higher = more signal, called active from +8 up or from −8 down
value-kind: z-score
Write no unit; give the number alone.

Reference set (4 entries):
molecule	value-kind	quantitative-result
CC(C)[Si]1(C(C)C)OCc2cc(-c3ccc(-c4ccc(Cl)c(Cl)c4)o3)nc(CCc3ccccc3)c21	z-score	0.643
COCCOC(=O)N1C(=O)[C@@]2(c3cc(C#CCNC(N)=O)ccc31)[C@H](c1ccc(OCCO)cc1)N1[C@H](c3ccccc3)[C@H](c3ccccc3)OC(=O)[C@H]1[C@@H]2C(N)=O	z-score	0.384
C=C[C@@H](C)[C@@H](OC(=O)Nc1ccc(SC)cc1)c1ccc(OCCO)cc1	z-score	-0.504
NC(=O)[C@H]1[C@@H]2C(=O)O[C@@H](c3ccccc3)[C@@H](c3ccccc3)N2[C@@H](c2ccc(O)cc2)[C@]12C(=O)Nc1ccc(C#CC3=CCCCC3)cc12	z-score	-0.51

Asked: Any idea what its z-score is? The compound is COCCCNC(=O)[C@@]1(c2ccc([N+](=O)[O-])cc2)CC(=O)N(CC23CC4CC(CC(C4)C2)C3)[C@@H]1c1ccc(CO)cc1I
Given back: -0.107
